measured_target: Epidermal growth factor receptor (Homo sapiens, UniProt P00533, L858R/T790M)
Sequence (P00533 25-1210 T790M/L858R limits assumed): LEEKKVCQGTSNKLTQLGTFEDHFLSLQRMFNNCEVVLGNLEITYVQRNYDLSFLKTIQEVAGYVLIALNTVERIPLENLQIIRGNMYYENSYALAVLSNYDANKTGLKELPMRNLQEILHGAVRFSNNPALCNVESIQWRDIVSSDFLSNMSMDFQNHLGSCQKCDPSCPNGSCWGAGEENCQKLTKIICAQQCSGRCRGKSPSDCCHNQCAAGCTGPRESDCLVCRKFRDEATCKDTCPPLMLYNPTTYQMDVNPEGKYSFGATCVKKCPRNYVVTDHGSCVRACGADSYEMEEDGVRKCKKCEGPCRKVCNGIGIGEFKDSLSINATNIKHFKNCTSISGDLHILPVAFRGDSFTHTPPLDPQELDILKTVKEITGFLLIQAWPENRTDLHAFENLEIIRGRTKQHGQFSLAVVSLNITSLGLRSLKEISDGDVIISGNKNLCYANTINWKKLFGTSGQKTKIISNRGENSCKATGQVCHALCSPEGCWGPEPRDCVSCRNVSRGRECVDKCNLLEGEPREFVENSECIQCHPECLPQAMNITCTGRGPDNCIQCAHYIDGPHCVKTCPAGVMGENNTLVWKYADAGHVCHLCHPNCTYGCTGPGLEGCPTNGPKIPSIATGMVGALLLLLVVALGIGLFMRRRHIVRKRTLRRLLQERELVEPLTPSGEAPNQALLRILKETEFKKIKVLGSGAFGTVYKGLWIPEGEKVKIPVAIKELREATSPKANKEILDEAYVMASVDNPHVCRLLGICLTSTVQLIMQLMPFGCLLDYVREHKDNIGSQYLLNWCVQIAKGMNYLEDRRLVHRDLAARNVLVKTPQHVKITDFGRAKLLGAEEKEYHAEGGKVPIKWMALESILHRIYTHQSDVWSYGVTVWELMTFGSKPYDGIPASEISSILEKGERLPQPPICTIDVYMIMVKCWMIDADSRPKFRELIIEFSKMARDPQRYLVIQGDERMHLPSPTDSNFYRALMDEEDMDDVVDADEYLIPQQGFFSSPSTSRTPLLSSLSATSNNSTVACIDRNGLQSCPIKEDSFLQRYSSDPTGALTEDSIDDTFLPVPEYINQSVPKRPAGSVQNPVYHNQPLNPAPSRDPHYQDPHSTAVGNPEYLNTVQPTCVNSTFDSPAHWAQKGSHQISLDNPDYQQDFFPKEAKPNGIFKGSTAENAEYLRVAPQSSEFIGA
experiment_summary: biochemical
pIC50: −log10 of the molar value.
We use 8 as the dividing line for pIC50: on or above the line is 1, below is -1.

Evaluate `C=CC(=O)Nc1cc2c(Nc3ccc(F)c(Cl)c3)ncnc2cc1OCc1cn(-c2ccccc2)nn1` : pIC50 at minimum 8? -1

Evaluate `C=CC(=O)Nc1cc2c(Nc3ccc(F)c(Cl)c3)ncnc2cc1OCc1cn(CCCO)nn1` : pIC50 at minimum 8? 1

Evaluate `C=CC(=O)Nc1cc2c(Nc3ccc(F)c(Cl)c3)ncnc2cc1OCc1cn(Cc2cccc(F)c2)nn1` : pIC50 at minimum 8? 1

Values were extracted from ChEMBL document CHEMBL4371069.
